System: mESC Bmi1-luciferase reporter, firefly/renilla ratio, 24 h
Assay: compounds raising Bmi1 reporter signal – mouse embryonic stem cells, luciferase, cherry-pick, esBAF inhibitor project, dose response (AID 651717);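 further: luciferase knocked into Bmi1 locus with EF-1a renilla as cell number control; rising ratio signals esBAF inhibition which derepresses Bmi1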
Measured AC40 of individual entries

>  <compound.smiles>
COc1ccccc1CNc1nc2cc(-c3sccc3C)sc2c(=O)n1C

>  <AC40>
6.95 µM

$$$$
>  <compound.smiles>
N/C(=N\OC(=O)Cc1cccs1)c1ccc(Cl)cc1

>  <AC40>
18.1 µM

$$$$
>  <compound.smiles>
O/N=C\c1cnc(N2CCN(c3ccccc3)CC2)s1

>  <AC40>
2.47 µM

$$$$
>  <compound.smiles>
Cc1c(C(=O)N2CCCc3ccccc32)sc2nc(-c3ccccc3)cn12

>  <AC40>
12.5 µM

$$$$
>  <compound.smiles>
COc1cc(CNc2ccc(S(N)(=O)=O)cc2)ccc1OCc1ccccc1F

>  <AC40>
1.87 µM

$$$$

Sample C#CCN(CC=C)C(=O)CCc1nnc(COc2ccccc2)o1 ; AC40 observed: 22.4 µM

Sample CC(C)c1ccc(CNc2ncc(Br)cn2)cc1 ; AC40 observed: 4.25 µM

Sample Cc1ccc(C(=O)Cc2ccccc2)c(O)c1 ; AC40 observed: 6.34 µM

Sample COc1cc(/C=C/c2nc3ccccc3c(=O)[nH]2)ccc1OC(F)F ; AC40 observed: 1.6 µM

Sample O=S(=O)(c1ccc2ccccc2c1)N1CCN(S(=O)(=O)c2c(F)cccc2F)CC1 ; AC40 observed: 1.26 µM

Sample O=C(Nc1ccc(Cl)c(Cl)c1)Nc1ccccc1O ; AC40 observed: 1.14 µM

Sample COc1ccccc1C(=O)Nn1cnc2ccccc2c1=O ; AC40 observed: 8.5 µM

Origin of values: PubChem BioAssay AID651717
